target: human DR5 (human); assay: SPR (BIAcore X100), human DR5 on CM5 chip, IgG injected, 1:1 Langmuir model
Measured koff of individual entries
endpointLabel: koff (s⁻¹)

| binder | resultComparator | recordedValue |
| --- | --- | --- |
| DA3 (antibody, V domains shown) VH: EVQLVESGGGLVQPGGSLRLSCAASGFTFSSFNMLWVRQAPGKGLEWVAGIGKSDRYTGYGSAVKGRFTISRDTSKSTVYLQMNSLRAEDTAVYYCVRDAGSGCGSGGWTGACIDTWGQGTLVTVSS VL: DIQMTQSPSSLSASVGDRVTITCSGGDSYAGSYYYGWYQQKPGKAPKTLIYNNNNRPSGVPSRFSGSTSGTDFTLTISSLQPEDFATYYCGSRDSSYVGIFGQGTKVEIK | < | 1e-05 |
| DA1 (antibody, V domains shown) VH: EVQLVESGGGLVQPGGSLRLSCAASGFTFSSFNMLWVRQAPGKGLEWVAGIGKSDRYTGYGSAVKGRFTISRDDSKSTVYLQMNSLRAEDTAVYYCVRDAGSGCGSGGWTGACIDTWGQGTLVTVSS VL: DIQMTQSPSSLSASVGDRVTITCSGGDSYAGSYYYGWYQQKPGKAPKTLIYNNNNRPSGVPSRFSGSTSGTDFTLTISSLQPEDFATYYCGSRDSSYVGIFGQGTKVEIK | < | 1e-05 |
| DA17 (antibody, V domains shown) VH: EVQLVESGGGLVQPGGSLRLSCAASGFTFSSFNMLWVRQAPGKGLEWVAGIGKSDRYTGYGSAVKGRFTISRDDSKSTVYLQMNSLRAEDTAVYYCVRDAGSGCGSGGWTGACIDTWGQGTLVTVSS VL: DIQMTQSPSSLSASVGDRVTITCSGGDSYAGSYYYGWYQQKPGKAPKTLIYNNNNKAKGVPSRFSGSRSGTDFTLTISSLQPEDFATYYCGSRDSSYVGIFGQGTKVEIK | = | 5.97e-05 |
| DA4 (antibody, V domains shown) VH: EVQLVESGGGLVQPGGSLRLSCAASGFTFSSFNMLWVRQAPGKGLEWVAGIGKSDRYTGYGSAVKGRFTISRDDSKNTVYLQMNSLRAEDTAVYYCVRDAGSGCGSGGWTGACIDTWGQGTLVTVSS VL: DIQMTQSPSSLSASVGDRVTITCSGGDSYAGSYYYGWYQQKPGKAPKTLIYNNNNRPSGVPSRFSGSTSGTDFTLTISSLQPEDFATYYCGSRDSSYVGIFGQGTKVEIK | = | 1.2e-07 |
| DA9 (antibody, V domains shown) VH: EVQLVESGGGLVQPGGSLRLSCAASGFTFSSFNMLWVRQAPGKGLEWVAGIGKSDRYTGYGSAVKGRFTISRDDSKSTLYLQMNSLRAEDTAVYYCVRDAGSGCGSGGWTGACIDTWGQGTLVTVSS VL: DIQMTQSPSSLSASVGDRVTITCSGGDSYAGSYYYGWYQQKPGKAPKTLIYNNNNRPSGVPSRFSGSRSGTDFTLTISSLQPEDFATYYCGSRDSSYVGIFGQGTKVEIK | = | 4e-07 |
| DA23 (antibody, V domains shown) VH: EVQLVESGGGLVQPGGSLRLSCAASGFTFSSFNMLWVRQAPGKGLEWVAGIGKSDRYTGYGSAVKGRFTISRDDSKSTVYLQMNSLRAEDTAVYYCVRDAGSPCGKGGWTGACIDTWGQGTLVTVSS VL: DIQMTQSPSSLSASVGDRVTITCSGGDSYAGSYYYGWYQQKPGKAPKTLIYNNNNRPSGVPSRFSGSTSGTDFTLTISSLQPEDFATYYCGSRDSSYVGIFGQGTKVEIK | = | 2.8e-05 |
| DA27 (antibody, V domains shown) VH: AVTLDESGGGLQTPGGGLSLVCKGSGFTFSSFNMLWVRQAPGKGLEWVAGIGKSDRYTGYGSAVKGRATISRDDGQSTVRLQLNNLRAEDTGTYYCVKDAGSGCGSGGWTGACIDTWGHGTEVIVSS VL: LTQPSSVSANLGGTVEITCSGGDSYAGSYYYGWYQQKAPGSAPVTVIYNNNNRPSNIPSRFSGSTSGSTATLTITGVQAEDEATYFCGSRDSSYVGIFGAGTTLTVL | = | 2.24e-06 |
| DA14 (antibody, V domains shown) VH: EVQLVESGGGLVQPGGSLRLSCAASGFTFSSFNMLWVRQAPGKGLEWVAGIGKSDRYTGYGSAVKGRFTISRDTSKNTAYLQMNSLRAEDTAVYYCSRDAGSGCGSGGWTGACIDTWGQGTLVTVSS VL: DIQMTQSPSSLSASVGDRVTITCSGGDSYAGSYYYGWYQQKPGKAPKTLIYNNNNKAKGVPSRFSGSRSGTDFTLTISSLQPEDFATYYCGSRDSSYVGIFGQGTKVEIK | = | 0.0001 |
| DA32 (antibody, V domains shown) VH: AVTLDESGGGLQTPGGGLSLVCKGSGFTFSSFNMLWVRQAPGKGLEWVAGIGKSDRYTGYGSAVKGRATISRDDGQSTVRLQLNNLRAEDTAVYYCVKDAGSGCGSGGWTGACIDTWGHGTEVIVSS VL: LTQPSSVSANLGGTVEITCSGGDSYAGSYYYGWYQQKAPGSAPVTVIYNNNNRPSNIPSRFSGSTSGSTATLTITGVQAEDEAVYFCGSRDSSYVGIFGAGTTLTVL | = | 8.59e-05 |
| DA7 (antibody, V domains shown) VH: EVQLVESGGGLVQPGGSLRLSCAASGFTFSSFNMLWVRQAPGKGLEWVAGIGKSDRYTGYGSAVKGRFTISRDDSKSTVYLQMNSLRAEDTAVYYCSRDAGSGCGSGGWTGACIDTWGQGTLVTVSS VL: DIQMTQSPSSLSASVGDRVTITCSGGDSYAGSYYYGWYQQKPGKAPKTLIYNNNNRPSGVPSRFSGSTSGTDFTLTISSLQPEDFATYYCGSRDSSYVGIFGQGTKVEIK | = | 2.9e-06 |
| DA34 (antibody, V domains shown) VH: AVTLDESGGGLQTPGGGLSLVCKGSGFTFSSFNMLWVRQAPGKGLEWVAGIGKSDRYTGYGSAVKGRATISRDDGQSTAYLQMNSLRAEDTAVYYCVKDAGSGCGSGGWTGACIDTWGHGTEVIVSS VL: LTQPSSVSANLGGTVEITCSGGDSYAGSYYYGWYQQKAPGSAPVTVIYNNNNRPSNIPSRFSGSTSGSTATLTITGVQAEDEATYYCGSRDSSYVGIFGAGTTLTVL | = | 9.5e-05 |
